Tested on: Mycobacterium lufu
protocolDescription: In vitro inhibition of Mycobacterium lufu dihydopterate synthase.
measurementLabel: pC

CCNc1ccc(S(=O)(=O)c2ccc(N)cc2)cc1 5.56
COC(=O)c1ccc(S(=O)(=O)c2ccc(N)cc2)cc1 4.93
COc1cc(N)ccc1S(=O)(=O)c1ccc(N)cc1 5.73
Nc1ccc(S(=O)(=O)c2ccc(N)cc2Cl)cc1 6.32
Nc1ccc(S(=O)(=O)c2ccc(N)c(O)c2)cc1 6.07
Nc1ccc(S(=O)(=O)c2ccc(C(=O)O)cc2)cc1 5.44
CCCCNc1ccc(S(=O)(=O)c2ccc(N)cc2)c(OC)c1 5.99
